System: Pyrausta nubilalis GSTs
PROCEDURE_TEXT: Inhibition of total GSTs enzyme of Pyrausta nubilalis (CDNB method)
Type: biochemical
CONDITION_INFO: 100 μM
REPORTED_PROPERTY: 100 μM Inhibition rate % (%)

The following compounds have reported results that may help.
INSERT INTO measurements (compound, tested_target, observed_result) VALUES
  ('O=C(CNc1ccccc1)NNC(=O)c1cc(-c2ccccc2)nn1-c1ccccc1 [PXG3]', 'Pyrausta nubilalis GSTs', 17.35),
  ('O=C(NN1C(=O)NC2(CCCCC2)C1=O)c1cc(-c2ccccc2)nn1-c1ccccc1 [PXG6]', 'Pyrausta nubilalis GSTs', 13.70),
  ('CC1CCC2(CC1)NC(=O)N(NC(=O)c1cc(-c3ccccc3)nn1-c1ccccc1)C2=O (stereo not drawn) [PXG16]', 'Pyrausta nubilalis GSTs', 0.41),
  ('CC1(c2ccccc2)NC(=O)N(NC(=O)c2cc(-c3ccccc3)nn2-c2ccccc2)C1=O (stereo not drawn) [PXG12]', 'Pyrausta nubilalis GSTs', 19.48);

1. O=C(NNC(=O)c1cc(-c2ccccc2)nn1-c1ccccc1)c1cc[nH]c(=O)c1 [PXG1]
2. O=C(NNC(=O)c1cc(-c2ccccc2)nn1-c1ccccc1)c1ccccc1 [PXG11]
3. CC1(CCc2ccccc2)NC(=O)N(NC(=O)c2cc(-c3ccccc3)nn2-c2ccccc2)C1=O (stereo not drawn) [PXG15]
Exercise: List the 3 entries from lowest 100 μM Inhibition rate % to highest 100 μM Inhibition rate % value. // rank by listing labels in the order requested
Key: 3, 2, 1
(3: 4.69%, 2: 23.84%, 1: 87.80%)

a. COc1ccccc1OCC(=O)NNC(=O)c1cc(-c2ccccc2)nn1-c1ccccc1 [PXG18]
b. COc1cc(C(=O)NNC(=O)c2cc(-c3ccccc3)nn2-c2ccccc2)cc(OC)c1OC [PXG4]
Exercise: Pick one: a or b . Which one has the lower reported 100 μM Inhibition rate %? In your reply, give the label of the chosen option.
Key: b
(b: −7.23%, a: 23.84%)

----------
TESTED_TARGET: PxGSTσ2 (Plutella xylostella, UniProt Q6F443)
Sequence (Q6F443 entry or part of it): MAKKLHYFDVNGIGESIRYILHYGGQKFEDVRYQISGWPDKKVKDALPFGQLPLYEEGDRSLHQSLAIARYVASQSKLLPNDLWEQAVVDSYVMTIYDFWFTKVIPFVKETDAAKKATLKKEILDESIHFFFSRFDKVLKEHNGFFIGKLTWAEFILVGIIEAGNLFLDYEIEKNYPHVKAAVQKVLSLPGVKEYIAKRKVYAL
PROCEDURE_TEXT: Inhibition of PxGSTσ2 recombinant protein
Type: biochemical
CONDITION_INFO: read-out: 100 μM Inhibition rate %
REPORTED_PROPERTY: inhibition at 100 µM (%)

INSERT INTO measurements (compound, reported_property, observed_result) VALUES
  ('CC1(c2ccccc2)NC(=O)N(NC(=O)c2cc(-c3ccccc3)nn2-c2ccccc2)C1=O (centres unmarked)', 'inhibition at 100 µM', 33.6);

a. COc1ccc(C2(C)NC(=O)N(NC(=O)c3cc(-c4ccccc4)nn3-c3ccccc3)C2=O)cc1 (centres unmarked)
b. O=C(NNC(=O)c1cc(-c2ccccc2)nn1-c1ccccc1)c1cc(=O)[nH]c2ccccc12
c. CCn1c(C)nc2cc(C(=O)NNC(=O)c3cc(-c4ccccc4)nn3-c3ccccc3)ccc21
Exercise: List the 3 entries from lowest inhibition at 100 µM to highest inhibition at 100 µM value. // rank by listing labels in the order requested
Key: c, a, b
(c: 11.7%, a: 36.4%, b: 76.7%)

----------
TESTED_TARGET: PxGSTε3 (Plutella xylostella)
Sequence (O77409 entry or part of it): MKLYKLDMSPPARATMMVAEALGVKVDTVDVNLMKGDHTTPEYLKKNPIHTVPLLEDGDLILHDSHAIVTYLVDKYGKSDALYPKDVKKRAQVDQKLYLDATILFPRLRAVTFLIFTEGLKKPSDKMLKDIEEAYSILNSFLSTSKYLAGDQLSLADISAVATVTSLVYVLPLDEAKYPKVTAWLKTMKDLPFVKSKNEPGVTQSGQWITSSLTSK
PROCEDURE_TEXT: Inhibition of PxGSTε3 recombinant protein
Format: biochemical
CONDITION_INFO: read-out: 100 μM Inhibition rate %
Description: Experiment: 100 μL of PBS buffer (100 mM, pH 7.2) was taken and added to a 96-well plate, 1 μg of PxGSTs recombinant protein and an appropriate concentration of the compounds PXG1-PXG29 of the present invention were added to each well, after uniformly mixing, and allowed to stand at 30° C. for 10 min. Then 100 μL of PBS buffer (100 mM, pH 7.2) containing 1 mM CDNB and 1 mM GSH was successively added to each well. […] Relative inhibition was calculated using the following formula: […]
REPORTED_PROPERTY: inhibition at 100 µM (%)

INSERT INTO results (compound, reported_property, observed_result) VALUES
  ('O=C(NNC(=O)C1CCCC1)c1cc(-c2ccccc2)nn1-c1ccccc1', 'inhibition at 100 µM', 0.96),
  ('CN(C)S(=O)(=O)c1cccc(C(=O)NNC(=O)c2cc(-c3ccccc3)nn2-c2ccccc2)c1', 'inhibition at 100 µM', -3.88),
  ('CCn1c(C)nc2cc(C(=O)NNC(=O)c3cc(-c4ccccc4)nn3-c3ccccc3)ccc21', 'inhibition at 100 µM', -2.67),
  ('Cc1csc(CC(=O)NNC(=O)c2cc(-c3ccccc3)nn2-c2ccccc2)n1', 'inhibition at 100 µM', -4),
  ('O=C(NNC(=O)c1cc(-c2ccccc2)nn1-c1ccccc1)c1cccnc1O', 'inhibition at 100 µM', 2.07);

A. CCCCCCSC[C@H](NC(=O)CC[C@H](N)C(=O)O)C(=O)NCC(=O)O [GTX, S-Hexylglutathione, reference compound]
B. O=C(COc1ccccc1)NNC(=O)c1cc(-c2ccccc2)nn1-c1ccccc1
C. CC1(CCc2ccccc2)NC(=O)N(NC(=O)c2cc(-c3ccccc3)nn2-c2ccccc2)C1=O (centres unmarked)
Exercise: List the 3 entries from lowest inhibition at 100 µM to highest inhibition at 100 µM value. // rank by listing labels in the order requested
Key: B, C, A
